Exercise: for every item that follows, state its recorded SPOT peptide array binding signal intensity.
# TESTED_ON: AgFus1
# ASSAY_METHOD_TEXT: SPOT peptide array binding signal intensity (averaged, normalized) (arbitrary units (background-subtracted, floor 0; scale differs between SH3 domains)); higher = stronger binding of the SH3 domain to the peptide

Per the record, AHFQPQRTAPKPPIS has SPOT peptide array binding signal intensity of ≤ 0

Per the record, HRRRRVFSIPSLKSI has SPOT peptide array binding signal intensity of 1100

Per the record, KTITLEVESSDTIDN has SPOT peptide array binding signal intensity of ≤ 0

Per the record, QTMRQAPKRPDADVA has SPOT peptide array binding signal intensity of 728

Per the record, KRRAPPPVPKKPSSR has SPOT peptide array binding signal intensity of 42.5

Per the record, ATNVPVAPPPPPASL has SPOT peptide array binding signal intensity of ≤ 0

Per the record, ANNQGPPNLPARDKS has SPOT peptide array binding signal intensity of ≤ 0

Per the record, PPPPPPPPPPLPQSL has SPOT peptide array binding signal intensity of ≤ 0

Per the record, MKRSRPSRSIPYTTP has SPOT peptide array binding signal intensity of 121

Per the record, APKREAPKPPANTSP has SPOT peptide array binding signal intensity of ≤ 0

Per the record, DTIDNVKSKIQDKEG has SPOT peptide array binding signal intensity of ≤ 0

Per the record, QGYPRQPQRPQRYHP has SPOT peptide array binding signal intensity of ≤ 0

Per the record, MAMRPIPPLPTESEY has SPOT peptide array binding signal intensity of 55.5

Per the record, APPPPPRRATPEKKP has SPOT peptide array binding signal intensity of ≤ 0

Per the record, PSPSSSPPPIPKTAN has SPOT peptide array binding signal intensity of 0.5
